For each of the compounds below, state its growth inhibition.
# PROTOCOL SUMMARY: NCI Yeast Anticancer Drug Screen. Data for the bub3 strain (AID 167)
# TEST CONDITIONS: S. cerevisiae bub3 mutant strain, at 3.7 µM, hits give high values
About 79,000 compounds went through this panel and 15% of them were active in at least one assay; those are over-represented in the sample as a whole.
Numbers only here, please. The scale is %.

The compound listed as O=[N+]([O-])c1ccc(C=Cc2ccccc2)cc1.[C-]#[O+].[C-]#[O+].[C-]#[O+].[Cr] has a reported growth inhibition of 10

The compound listed as CC1=C(N2CC2)C(=O)c2ccccc2C1=O has a reported growth inhibition of -2

The compound listed as OC1CCCC2CCC[N-]C12.OC1CCCC2CCC[N-]C12.[O]=[V][OH] (stereo unspecified) has a reported growth inhibition of 89

The compound listed as C[C@]12CCC3[C@@H](CC[C@@H]4c5nonc5CC[C@]34C)C1CCC2=O (stereo partly specified) has a reported growth inhibition of 19

The compound listed as COC1CC(CC2CCC(C)C(C(C)C(=O)O)O2)OC2(OC(C)(C3CCC(C)(C4OC(C5OC(O)(CO)C(C)CC5C)CC4C)O3)CC2C)C1C (stereo unspecified) has a reported growth inhibition of -4

The compound listed as [O-][n+]1c2cccc(O)c2[n+]([O-])c2cccc(O)c21 has a reported growth inhibition of 3

The compound listed as OC1(c2ccccc2)CC2CCC(C1)N2CCCC(O)(c1ccccc1)c1ccccc1 (stereo unspecified) has a reported growth inhibition of 0

The compound listed as CCOP(=S)(S)OCC.[Pd] has a reported growth inhibition of 63

The compound listed as COC(=O)C1=C(C(=O)OC)C2OC1c1cc3ccccc3cc12 has a reported growth inhibition of 87

The compound listed as CC1CCCN(CCc2ccccc2)CC1 (stereo unspecified) has a reported growth inhibition of 0

The compound listed as CCC(=O)OC1CCn2c1nc1c2C(=O)C(C)=C(N2CC2)C1=O (stereo unspecified) has a reported growth inhibition of -3

The compound listed as CCCCN(CCCC)CC(C(C)=O)C(c1ccccc1)c1c(O)c2ccccc2oc1=O (stereo unspecified) has a reported growth inhibition of 2

The compound listed as Cc1nc2ccccc2cc1C[N+]12CN3CN(CN(C3)C1)C2 has a reported growth inhibition of 4

The compound listed as CCC1(O)C(=O)OCc2c1cc1n(c2=O)Cc2cc3ccccc3nc2-1 (stereo unspecified) has a reported growth inhibition of 9

The compound listed as O=P(CCCCP(=O)(c1ccccc1)c1ccccc1)(c1ccccc1)c1ccccc1.[Cl][Sn]([Cl])([c]1ccccc1)[c]1ccccc1 has a reported growth inhibition of -3

The compound listed as C[CH2][Sn]1([CH2]C)[O]C2C(O)OC(CO)C(O)C2[O]1 (stereo unspecified) has a reported growth inhibition of 4

The compound listed as CC1(C)N=C(N)N=C(N)N1c1cccc(N)c1.[Sn] has a reported growth inhibition of -13

The compound listed as Cc1c(N)nc([C@H](CC(N)=O)NC[C@H](N)C(N)=O)nc1C(=O)N[C@H](C(=O)N[C@H](C)[C@@H](O)[C@H](C)C(=O)N[C@H](C(=O)NCCc1nc(-c2nc(C(=O)NCCC[S+](C)C)cs2)cs1)[C@@H](C)O)C(OC1OC(CO)C(O)C(O)C1OC1OC(CO)C(O)C(OC(N)=O)C1O)c1cnc[nH]1 (stereo partly specified) has a reported growth inhibition of 2

The compound listed as CC[C@]1(O)CC(OC2CC(N(C)C)C(O)C(C)O2)c2c(cc3c(c2O)C(=O)c2c(O)cccc2C3=O)[C@@H]1C(=O)OC (stereo partly specified) has a reported growth inhibition of 32

The compound listed as COc1ccc(OC)c(/C=C/[N+](=O)[O-])c1 has a reported growth inhibition of 6

The compound listed as C[N+](CCCl)(CCCl)Cc1cccc2cccc([N+](=O)[O-])c12 has a reported growth inhibition of -26

Just for reference, PubChem BioAssay (NCI) is where these values come from.
